Cited source: the supplement of paper PMC11061612

Documented Bliss excess across a set of molecules
Tested on: CAL-39 (Other Solid Carcinomas)
assay name: Bliss excess, mean over the matrix (fraction); higher = more synergy
measured parameter: Bliss excess

1) CN(CCO)CC[C@H](CSc1ccccc1)Nc1ccc(S(=O)(=O)NC(=O)c2ccc(N3CCC([C@@H](O)c4ccccc4-c4ccc(Cl)cc4)CC3)cc2)cc1S(=O)(=O)C(F)(F)F [AZD4320] + C=CCn1c(=O)c2cnc(Nc3ccc(N4CCN(C)CC4)cc3)nc2n1-c1cccc(C(C)(C)O)n1 [AZD1775] (first compound max 1 µM, partner max 1 µM) ... -0.0529
2) Cc1c2c(nn1C)CSCc1cc(n(C)n1)CSc1cc(c3ccccc3c1)OCCCc1c(C(=O)O)n(C)c3c-2c(Cl)ccc13 [AZD5991] + CN(C)CCCOc1ccc(-c2ccc3ncc4c(c3c2)n(C2CCOCC2)c(=O)n4C)cn1 [AZD0156] (first compound max 1 µM, 7x7, partner max 1 µM) ... -0.0786
3) Cc1c2c(nn1C)CSCc1cc(n(C)n1)CSc1cc(c3ccccc3c1)OCCCc1c(C(=O)O)n(C)c3c-2c(Cl)ccc13 [AZD5991] + CS(=O)(=O)CCNCc1ccc(-c2ccc3ncnc(Nc4ccc(OCc5cccc(F)c5)c(Cl)c4)c3c2)o1 [Lapatinib] (first compound max 1 µM, 7x7, partner max 10 µM) ... 0.0372
4) C=CCn1c(=O)c2cnc(Nc3ccc(N4CCN(C)CC4)cc3)nc2n1-c1cccc(C(C)(C)O)n1 [AZD1775] + C[C@@H]1COCCN1C2=NC(=NC(=C2)C3(CC3)[S@](=N)(=O)C)C4=C5C=CNC5=NC=C4 [AZD6738] (first compound max 1 µM, partner max 10 µM) ... 0.0822
5) C[C@@H]1COCCN1c1cc(C2([S@](C)(=N)=O)CC2)nc(-c2ccnc3[nH]ccc23)n1 [AZD6738] + C1CC(C1)(C(=O)[O-])C(=O)[O-].N.N.[Pt+2] [Carboplatin] (first compound max 10 µM, 7x7, partner max 10 µM) ... -0.0128
6) O=C(c1cc(Cc2n[nH]c(=O)c3ccccc23)ccc1F)N1CCN(C(=O)C2CC2)CC1 [Olaparib] + CN(CC[C@H](CSC1=CC=CC=C1)NC2=C(C=C(C=C2)S(=O)(=O)NC(=O)C3=CC=C(C=C3)N4CCC(CC4)[C@H](C5=CC=CC=C5C6=CC=C(C=C6)Cl)O)S(=O)(=O)C(F)(F)F)CCO [AZD4320] (first compound max 10 µM, 7x7, partner max 1 µM) ... -0.0242
7) O=C(c1cc(Cc2n[nH]c(=O)c3ccccc23)ccc1F)N1CCN(C(=O)C2CC2)CC1 [Olaparib] + Cc1c2c(nn1C)CSCc1cc(n(C)n1)CSc1cc(c3ccccc3c1)OCCCc1c(C(=O)O)n(C)c3c-2c(Cl)ccc13 [AZD5991] (first compound max 10 µM, 7x7, partner max 1 µM) ... -0.0409

* * *

System: EFM-192A (Breast Carcinoma)
assay name: Bliss excess, mean over the matrix (fraction); higher = more synergy
Would you please tag the item criterion met when its Bliss excess is -0.003 or above, and criterion not met when it is below?

1) CN(CCO)CC[C@H](CSc1ccccc1)Nc1ccc(S(=O)(=O)NC(=O)c2ccc(N3CCC([C@@H](O)c4ccccc4-c4ccc(Cl)cc4)CC3)cc2)cc1S(=O)(=O)C(F)(F)F [AZD4320] + CN(C)CCCOc1ccc(-c2ccc3ncc4c(c3c2)n(C2CCOCC2)c(=O)n4C)cn1 [AZD0156] (first compound max 1 µM, 7x7, partner max 1 µM) ... criterion not met
2) NC1(C(=O)N[C@@H](CCO)c2ccc(Cl)cc2)CCN(c2ncnc3[nH]ccc23)CC1 [Capivasertib] + COc1nnc2ccc(N3CCC(c4ccc(OCCN5CCN(C)C(=O)[C@H]5C)cc4)CC3)nn12 [AZD5153] (first compound max 10 µM, 7x7, partner max 1 µM) ... criterion met
3) Cc1c2c(nn1C)CSCc1cc(n(C)n1)CSc1cc(c3ccccc3c1)OCCCc1c(C(=O)O)n(C)c3c-2c(Cl)ccc13 [AZD5991] + C[C@@H]1COCCN1C2=NC(=NC(=C2)C3(CC3)[S@](=N)(=O)C)C4=C5C=CNC5=NC=C4 [AZD6738] (first compound max 1 µM, 7x7, partner max 10 µM) ... criterion met
4) COc1nnc2ccc(N3CCC(c4ccc(OCCN5CCN(C)C(=O)[C@H]5C)cc4)CC3)nn12 [AZD5153] + Cn1cnc2c(F)c(Nc3ccc(Br)cc3Cl)c(C(=O)NOCCO)cc21 [Selumetinib] (first compound max 1 µM, 7x7, partner max 10 µM) ... criterion not met
5) CC1(C)CCC(CN2CCN(c3ccc(C(=O)NS(=O)(=O)c4ccc(NCC5CCOCC5)c([N+](=O)[O-])c4)c(Oc4cnc5[nH]ccc5c4)c3)CC2)=C(c2ccc(Cl)cc2)C1 [Venetoclax] + Cc1cc2ncnn2cc1Nc1ncc2c(n1)n(C1CCOCC1)c(=O)n2C [AZD7648] (first compound max 1 µM, 7x7, partner max 10 µM) ... criterion not met
6) Cc1cc2ncnn2cc1Nc1ncc2c(n1)n(C1CCOCC1)c(=O)n2C [AZD7648] + CN(C)CCCOc1ccc(-c2ccc3ncc4c(c3c2)n(C2CCOCC2)c(=O)n4C)cn1 [AZD0156] (first compound max 10 µM, 7x7, partner max 1 µM) ... criterion not met
7) CN(C)CCCOc1ccc(-c2ccc3ncc4c(c3c2)n(C2CCOCC2)c(=O)n4C)cn1 [AZD0156] + O=C(c1cc(Cc2n[nH]c(=O)c3ccccc23)ccc1F)N1CCN(C(=O)C2CC2)CC1 [Olaparib] (first compound max 3 µM, partner max 3 µM) ... criterion met

* * *

System: A172 (Glioblastoma)
assay name: combination Emax (second highest fraction inhibited in the dose matrix, 72 h); higher = more inhibition; extreme values may be limits of the assay
measured parameter: combination Emax

1. Cc1c2c(nn1C)CSCc1cc(n(C)n1)CSc1cc(c3ccccc3c1)OCCCc1c(C(=O)O)n(C)c3c-2c(Cl)ccc13 [AZD5991] + Cc1cc2ncnn2cc1Nc1ncc2c(n1)n(C1CCOCC1)c(=O)n2C [AZD7648] (first compound max 1 µM, 7x7, partner max 10 µM) ... 0.322
2. CCc1c2c(nc3ccc(O)cc13)-c1cc3c(c(=O)n1C2)COC(=O)[C@]3(O)CC [SN-38] + O=C(c1cc(Cc2n[nH]c(=O)c3ccccc23)ccc1F)N1CCN(C(=O)C2CC2)CC1 [Olaparib] (first compound max 0.3 µM, 7x7, partner max 10 µM) ... 0.842
3. CC1(C)CCC(CN2CCN(c3ccc(C(=O)NS(=O)(=O)c4ccc(NCC5CCOCC5)c([N+](=O)[O-])c4)c(Oc4cnc5[nH]ccc5c4)c3)CC2)=C(c2ccc(Cl)cc2)C1 [Venetoclax] + C[C@@H]1COCCN1C2=NC(=NC(=C2)C3(CC3)[S@](=N)(=O)C)C4=C5C=CNC5=NC=C4 [AZD6738] (first compound max 1 µM, 7x7, partner max 10 µM) ... 0.595

* * *

Documented Bliss excess across a set of molecules
System: NOMO-1 (Acute Myeloid Leukemia)
assay name: Bliss excess, mean over the matrix (fraction); higher = more synergy
measured parameter: Bliss excess

1. CS(=O)(=O)CCNCc1ccc(-c2ccc3ncnc(Nc4ccc(OCc5cccc(F)c5)c(Cl)c4)c3c2)o1 [Lapatinib] + Cn1cnc2c(F)c(Nc3ccc(Br)cc3Cl)c(C(=O)NOCCO)cc21 [Selumetinib] (first compound max 10 µM, 7x7, partner max 10 µM) ... -0.0346
2. O=C(c1cc(Cc2n[nH]c(=O)c3ccccc23)ccc1F)N1CCN(C(=O)C2CC2)CC1 [Olaparib] + CN(CC[C@H](CSC1=CC=CC=C1)NC2=C(C=C(C=C2)S(=O)(=O)NC(=O)C3=CC=C(C=C3)N4CCC(CC4)[C@H](C5=CC=CC=C5C6=CC=C(C=C6)Cl)O)S(=O)(=O)C(F)(F)F)CCO [AZD4320] (first compound max 10 µM, 7x7, partner max 1 µM) ... 0.034
3. Cn1cnc2c(F)c(Nc3ccc(Br)cc3Cl)c(C(=O)NOCCO)cc21 [Selumetinib] + C=CCn1c(=O)c2cnc(Nc3ccc(N4CCN(C)CC4)cc3)nc2n1-c1cccc(C(C)(C)O)n1 [AZD1775] (first compound max 10 µM, partner max 1 µM) ... -0.0509
4. COc1cccc(OCCCN)c1-c1cc(Nc2cnc(C#N)cn2)n[nH]1 [Prexasertib] + C=CCn1c(=O)c2cnc(Nc3ccc(N4CCN(C)CC4)cc3)nc2n1-c1cccc(C(C)(C)O)n1 [AZD1775] (first compound max 1 µM, partner max 1 µM) ... 0.0539

* * *

Tested on: NOMO-1 (Acute Myeloid Leukemia)
assay name: combination Emax (second highest fraction inhibited in the dose matrix, 72 h); higher = more inhibition; extreme values may be limits of the assay
measured parameter: combination Emax

1) Cc1cc2ncnn2cc1Nc1ncc2c(n1)n(C1CCOCC1)c(=O)n2C [AZD7648] + C[C@@H]1COCCN1C2=NC(=NC(=C2)C3(CC3)[S@](=N)(=O)C)C4=C5C=CNC5=NC=C4 [AZD6738] (first compound max 10 µM, 7x7, partner max 10 µM) ... 0.961
2) COc1nnc2ccc(N3CCC(c4ccc(OCCN5CCN(C)C(=O)[C@H]5C)cc4)CC3)nn12 [AZD5153] + C=CCn1c(=O)c2cnc(Nc3ccc(N4CCN(C)CC4)cc3)nc2n1-c1cccc(C(C)(C)O)n1 [AZD1775] (first compound max 1 µM, partner max 1 µM) ... 0.983
3) Cc1c2c(nn1C)CSCc1cc(n(C)n1)CSc1cc(c3ccccc3c1)OCCCc1c(C(=O)O)n(C)c3c-2c(Cl)ccc13 [AZD5991] + CC(=O)O[C@H]1C(=O)[C@@]2(C)[C@H]([C@H](OC(=O)c3ccccc3)[C@]3(O)C[C@H](OC(=O)[C@H](O)[C@@H](NC(=O)c4ccccc4)c4ccccc4)C(C)=C1C3(C)C)[C@]1(OC(C)=O)CO[C@@H]1C[C@@H]2O [Paclitaxel] (first compound max 1 µM, 7x7, partner max 3 µM) ... 1
4) C=CCn1c(=O)c2cnc(Nc3ccc(N4CCN(C)CC4)cc3)nc2n1-c1cccc(C(C)(C)O)n1 [AZD1775] + O=C(c1cc(Cc2n[nH]c(=O)c3ccccc23)ccc1F)N1CCN(C(=O)C2CC2)CC1 [Olaparib] (first compound max 1 µM, partner max 10 µM) ... 0.917
5) O=C(c1cc(Cc2n[nH]c(=O)c3ccccc23)ccc1F)N1CCN(C(=O)C2CC2)CC1 [Olaparib] + CN(CC[C@H](CSC1=CC=CC=C1)NC2=C(C=C(C=C2)S(=O)(=O)NC(=O)C3=CC=C(C=C3)N4CCC(CC4)[C@H](C5=CC=CC=C5C6=CC=C(C=C6)Cl)O)S(=O)(=O)C(F)(F)F)CCO [AZD4320] (first compound max 10 µM, 7x7, partner max 1 µM) ... 0.348
6) CC(=O)c1c(C)c2cnc(Nc3ccc(N4CCNCC4)cn3)nc2n(C2CCCC2)c1=O [Palbociclib] + Cn1cnc2c(F)c(Nc3ccc(Br)cc3Cl)c(C(=O)NOCCO)cc21 [Selumetinib] (first compound max 10 µM, 7x7, partner max 10 µM) ... 0.858
7) C=CCn1c(=O)c2cnc(Nc3ccc(N4CCN(C)CC4)cc3)nc2n1-c1cccc(C(C)(C)O)n1 [AZD1775] + C1CN(CCC1(C(=O)N[C@@H](CCO)C2=CC=C(C=C2)Cl)N)C3=NC=NC4=C3C=CN4 [Capivasertib] (first compound max 3 µM, partner max 3 µM) ... 0.964
8) NC1(C(=O)N[C@@H](CCO)c2ccc(Cl)cc2)CCN(c2ncnc3[nH]ccc23)CC1 [Capivasertib] + COc1nnc2ccc(N3CCC(c4ccc(OCCN5CCN(C)C(=O)[C@H]5C)cc4)CC3)nn12 [AZD5153] (first compound max 10 µM, 7x7, partner max 1 µM) ... 1
9) COc1cccc(OCCCN)c1-c1cc(Nc2cnc(C#N)cn2)n[nH]1 [Prexasertib] + CCc1c2c(nc3ccc(O)cc13)-c1cc3c(c(=O)n1C2)COC(=O)[C@]3(O)CC [SN-38] (first compound max 1 µM, 7x7, partner max 0.3 µM) ... 1
10) N#Cc1cnc(Nc2cc(NC[C@H]3CNCCO3)c(C(F)(F)F)cn2)cn1 [SRA737] + O=c1[nH]cc(F)c(=O)[nH]1 [5-Fluorouracil] (first compound max 10 µM, 7x7, partner max 20 µM) ... 0.985
11) CC(=O)c1c(C)c2cnc(Nc3ccc(N4CCNCC4)cn3)nc2n(C2CCCC2)c1=O [Palbociclib] + Cc1c2c(nn1C)CSCc1cc(n(C)n1)CSc1cc(c3ccccc3c1)OCCCc1c(C(=O)O)n(C)c3c-2c(Cl)ccc13 [AZD5991] (first compound max 10 µM, 7x7, partner max 1 µM) ... 0.858
12) CN(CCO)CC[C@H](CSc1ccccc1)Nc1ccc(S(=O)(=O)NC(=O)c2ccc(N3CCC([C@@H](O)c4ccccc4-c4ccc(Cl)cc4)CC3)cc2)cc1S(=O)(=O)C(F)(F)F [AZD4320] + C[C@@H]1COCCN1C2=NC(=NC(=C2)C3(CC3)[S@](=N)(=O)C)C4=C5C=CNC5=NC=C4 [AZD6738] (first compound max 1 µM, 7x7, partner max 10 µM) ... 0.972
13) Cc1cc2ncnn2cc1Nc1ncc2c(n1)n(C1CCOCC1)c(=O)n2C [AZD7648] + CN(C)CCCOc1ccc(-c2ccc3ncc4c(c3c2)n(C2CCOCC2)c(=O)n4C)cn1 [AZD0156] (first compound max 10 µM, 7x7, partner max 1 µM) ... 0.461
14) Cc1cc2ncnn2cc1Nc1ncc2c(n1)n(C1CCOCC1)c(=O)n2C [AZD7648] + C=CCn1c(=O)c2cnc(Nc3ccc(N4CCN(C)CC4)cc3)nc2n1-c1cccc(C(C)(C)O)n1 [AZD1775] (first compound max 10 µM, partner max 1 µM) ... 0.961
